Recorded pIC50 by entry
target.desc: BTK (Homo sapiens (Human), UniProt Q06187)
Sequence (Q06187 whole entry): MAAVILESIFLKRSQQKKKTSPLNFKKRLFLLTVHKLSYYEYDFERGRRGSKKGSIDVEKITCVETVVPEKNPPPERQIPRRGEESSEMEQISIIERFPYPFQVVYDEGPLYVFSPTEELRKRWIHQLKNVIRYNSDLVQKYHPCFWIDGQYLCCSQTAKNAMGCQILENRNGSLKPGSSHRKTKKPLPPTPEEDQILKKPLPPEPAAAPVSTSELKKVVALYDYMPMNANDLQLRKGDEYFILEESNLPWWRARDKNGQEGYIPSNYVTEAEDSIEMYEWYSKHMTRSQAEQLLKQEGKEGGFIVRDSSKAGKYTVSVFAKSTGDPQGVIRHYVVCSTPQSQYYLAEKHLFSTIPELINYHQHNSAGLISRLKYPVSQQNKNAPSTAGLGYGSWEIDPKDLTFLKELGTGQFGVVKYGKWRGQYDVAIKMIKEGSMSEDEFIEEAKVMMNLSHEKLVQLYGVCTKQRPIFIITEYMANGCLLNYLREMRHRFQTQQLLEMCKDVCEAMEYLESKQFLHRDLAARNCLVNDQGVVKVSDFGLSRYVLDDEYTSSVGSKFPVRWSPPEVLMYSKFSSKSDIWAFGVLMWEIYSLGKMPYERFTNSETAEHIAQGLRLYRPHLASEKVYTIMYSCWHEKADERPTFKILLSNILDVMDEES
test: In Vitro PD Assay in Human Whole Blood (pBTK assay)
Type: cell-based
measurement.context: 37° C. for 30 min, 50% inhibition of ECL signal
pIC50: −log10 of the molar value.
observation.type: pIC50

>  <entry.smiles>
Cc1cc(-c2ccnc(NC(=O)C3CC3)c2)c(F)cc1CNC(=O)c1nc(C(C)(C)C)no1

>  <target.desc>
BTK (Homo sapiens (Human), UniProt Q06187)

>  <observation.type>
pIC50

>  <result>
6.30 to 7.00

$$$$
>  <entry.smiles>
CC(C)(C)c1noc(C(=O)N[C@@H]2CCCCc3cc(-c4ccnc(NC(=O)[C@@H]5C[C@H]5C#N)c4)ccc32)n1

>  <target.desc>
BTK (Homo sapiens (Human), UniProt Q06187)

>  <observation.type>
pIC50

>  <result>
6.30 to 7.00

$$$$
>  <entry.smiles>
Cc1cc(-c2ccnc(NC(=O)C3CC3)c2)ccc1CNC(=O)c1ccn(C(C)(C)C)n1

>  <target.desc>
BTK (Homo sapiens (Human), UniProt Q06187)

>  <observation.type>
pIC50

>  <result>
5.00 to 6.30

$$$$
>  <entry.smiles>
Cc1c(CNC(=O)c2nc(C(C)(C)C)no2)ccc(-c2ccnc(NC(=O)C3CC3)c2)c1F

>  <target.desc>
BTK (Homo sapiens (Human), UniProt Q06187)

>  <observation.type>
pIC50

>  <result>
≥ 7.00

$$$$
>  <entry.smiles>
CC(C)(C)c1noc(C(=O)NCc2ccc(-c3ccnc(NC(=O)C4CC4)c3)cc2C(F)(F)F)n1

>  <target.desc>
BTK (Homo sapiens (Human), UniProt Q06187)

>  <observation.type>
pIC50

>  <result>
≥ 7.00

$$$$
>  <entry.smiles>
CC(C)(C)c1noc(C(=O)N[C@@H]2CCN(CC(F)(F)F)Cc3cc(-c4ccnc(NC(=O)C5CC5)c4)ccc32)n1

>  <target.desc>
BTK (Homo sapiens (Human), UniProt Q06187)

>  <observation.type>
pIC50

>  <result>
6.30 to 7.00

$$$$

----------
Recorded IC50 by entry
target.desc: BTK (Homo sapiens (Human))
test: In Vitro BTK Kinase Assay: BTK-POLYGAT-LS ASSAY
Format: biochemical
measurement.context: ATP 10 μM, polyGAT 100 nM, BTK 0.25 nM, 30 minutes

>  <compound>
Cc1cc(-c2ccnc(NC(=O)C3CC3C(F)(F)F)c2)ccc1CNC(=O)c1noc(C(C)(C)C)n1 (stereo not drawn) [Compound 25]

>  <target.desc>
BTK (Homo sapiens (Human))

>  <IC50>
1 to 10 nM

$$$$
>  <compound>
C[C@@H](NC(=O)c1nc(C(C)(C)C)no1)c1ccc(-c2ccnc(NC(=O)C3CC3)c2)cc1C(F)(F)F [Compound 79]

>  <target.desc>
BTK (Homo sapiens (Human))

>  <IC50>
≤ 1 nM

$$$$
>  <compound>
Cc1c(CNC(=O)c2noc(C(C)(C)C)n2)ccc(-c2ccnc(NC(=O)C3CC3)c2)c1Cl [Compound 84]

>  <target.desc>
BTK (Homo sapiens (Human))

>  <IC50>
≤ 1 nM

$$$$
>  <compound>
CC(C)(C)c1nc(C(=O)N[C@H]2CCCOc3cc(-c4ccnc(NC(=O)C5CC5)c4)ccc32)no1 [Compound 53]

>  <target.desc>
BTK (Homo sapiens (Human))

>  <IC50>
10 to 1000 nM

$$$$
>  <compound>
C[C@@H](NC(=O)c1noc(C(C)(C)C)n1)c1ccc(-c2cc(NC(=O)C3CC3)ncc2F)cc1Cl [Compound 22]

>  <target.desc>
BTK (Homo sapiens (Human))

>  <IC50>
≤ 1 nM

$$$$
>  <compound>
Cc1cc(-c2ccnc(NC(=O)[C@H]3C[C@@H]3C)c2)ccc1CNC(=O)c1noc(C(C)(C)C)n1 [Compound 5]

>  <target.desc>
BTK (Homo sapiens (Human))

>  <IC50>
≤ 1 nM

$$$$
>  <compound>
Cc1c(-c2ccnc(NC(=O)C3CC3)c2)ccc(CNC(=O)c2noc(C(C)(C)C)n2)c1F [Compound 101]

>  <target.desc>
BTK (Homo sapiens (Human))

>  <IC50>
≤ 1 nM

$$$$
>  <compound>
Cc1c(CNC(=O)c2noc(C(C)(C)C)n2)ccc(-c2ccnc(NC(=O)C3CC3)c2)c1F [Compound 11]

>  <target.desc>
BTK (Homo sapiens (Human))

>  <IC50>
≤ 1 nM

$$$$
>  <compound>
Cc1cc(-c2cc(NC(=O)C3CC3)ncc2F)c(F)cc1CNC(=O)c1noc(C(C)(C)C)n1 [Compound 103]

>  <target.desc>
BTK (Homo sapiens (Human))

>  <IC50>
≤ 1 nM

$$$$
>  <compound>
CC(C)(C)c1noc(C(=O)N[C@@H]2CCCCc3cc(-c4ccnc(NC(=O)[C@@H]5C[C@@H]5C#N)c4)ccc32)n1 [Compound 50]

>  <target.desc>
BTK (Homo sapiens (Human))

>  <IC50>
≤ 1 nM

$$$$
>  <compound>
CC(C)(C)c1ncc(C(=O)NCc2ccc(-c3ccnc(NC(=O)C4CC4)c3)c(F)c2C2CC2)o1 [Compound 30]

>  <target.desc>
BTK (Homo sapiens (Human))

>  <IC50>
1 to 10 nM

$$$$
>  <compound>
Cc1cc(-c2ccnc(NC(=O)C3CC3)c2)c(F)cc1CNC(=O)c1noc(C(C)(C)C)n1 [Compound 13]

>  <target.desc>
BTK (Homo sapiens (Human))

>  <IC50>
≤ 1 nM

$$$$
>  <compound>
CC(C)(C)c1noc(C(=O)N[C@@H]2CCCCc3cc(-c4ccnc(NC(=O)[C@@H]5C[C@H]5C#N)c4)ccc32)n1 [Compound 51]

>  <target.desc>
BTK (Homo sapiens (Human))

>  <IC50>
≤ 1 nM

$$$$
>  <compound>
CC(C)(C)c1nc(C(=O)NCc2ccc(-c3ccnc(NC(=O)C4CC4)c3)c(F)c2C2CC2)no1 [Compound 33]

>  <target.desc>
BTK (Homo sapiens (Human))

>  <IC50>
≤ 1 nM

$$$$
>  <compound>
Cc1cc(-c2cc(NC(=O)C3CC3)ncc2C(F)(F)F)ccc1CNC(=O)c1noc(C(C)(C)C)n1 [Compound 26]

>  <target.desc>
BTK (Homo sapiens (Human))

>  <IC50>
1 to 10 nM

$$$$

The measured values listed here are drawn from patent US12240838B2.
